# maps each entry to its pIC50
Target: human PI3Kα protein (Homo sapiens, UniProt P42336)
Construct: purchased Carna Biosciences, Inc; host or cells: baculovirus expression system
Sequence (P42336 whole entry): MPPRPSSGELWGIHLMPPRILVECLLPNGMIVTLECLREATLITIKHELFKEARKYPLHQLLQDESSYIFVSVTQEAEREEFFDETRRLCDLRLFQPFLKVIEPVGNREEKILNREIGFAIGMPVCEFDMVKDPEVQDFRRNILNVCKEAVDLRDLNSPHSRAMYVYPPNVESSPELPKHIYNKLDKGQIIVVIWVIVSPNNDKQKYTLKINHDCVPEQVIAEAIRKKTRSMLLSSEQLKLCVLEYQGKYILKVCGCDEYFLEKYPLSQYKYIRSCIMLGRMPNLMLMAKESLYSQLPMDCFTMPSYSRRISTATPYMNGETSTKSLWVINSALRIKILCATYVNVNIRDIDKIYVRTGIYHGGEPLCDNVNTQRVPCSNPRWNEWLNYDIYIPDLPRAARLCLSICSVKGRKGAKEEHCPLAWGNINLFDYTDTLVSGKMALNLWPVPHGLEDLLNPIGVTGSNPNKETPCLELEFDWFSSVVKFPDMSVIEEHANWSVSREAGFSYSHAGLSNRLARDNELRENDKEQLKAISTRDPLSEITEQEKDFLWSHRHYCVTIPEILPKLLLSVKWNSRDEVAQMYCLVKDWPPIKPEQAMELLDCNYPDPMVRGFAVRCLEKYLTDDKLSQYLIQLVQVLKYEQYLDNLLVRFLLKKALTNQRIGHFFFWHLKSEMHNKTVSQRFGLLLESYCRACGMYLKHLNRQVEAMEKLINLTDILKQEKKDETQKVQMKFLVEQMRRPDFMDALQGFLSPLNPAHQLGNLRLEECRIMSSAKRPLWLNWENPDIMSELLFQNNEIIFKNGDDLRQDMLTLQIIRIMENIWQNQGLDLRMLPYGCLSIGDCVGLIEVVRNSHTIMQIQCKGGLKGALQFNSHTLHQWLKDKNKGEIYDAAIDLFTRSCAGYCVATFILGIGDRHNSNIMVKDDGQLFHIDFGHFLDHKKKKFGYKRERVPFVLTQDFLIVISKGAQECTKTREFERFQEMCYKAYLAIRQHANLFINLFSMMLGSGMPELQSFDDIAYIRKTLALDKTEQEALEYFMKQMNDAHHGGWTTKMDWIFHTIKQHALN
Sequence (P27986 whole entry partner): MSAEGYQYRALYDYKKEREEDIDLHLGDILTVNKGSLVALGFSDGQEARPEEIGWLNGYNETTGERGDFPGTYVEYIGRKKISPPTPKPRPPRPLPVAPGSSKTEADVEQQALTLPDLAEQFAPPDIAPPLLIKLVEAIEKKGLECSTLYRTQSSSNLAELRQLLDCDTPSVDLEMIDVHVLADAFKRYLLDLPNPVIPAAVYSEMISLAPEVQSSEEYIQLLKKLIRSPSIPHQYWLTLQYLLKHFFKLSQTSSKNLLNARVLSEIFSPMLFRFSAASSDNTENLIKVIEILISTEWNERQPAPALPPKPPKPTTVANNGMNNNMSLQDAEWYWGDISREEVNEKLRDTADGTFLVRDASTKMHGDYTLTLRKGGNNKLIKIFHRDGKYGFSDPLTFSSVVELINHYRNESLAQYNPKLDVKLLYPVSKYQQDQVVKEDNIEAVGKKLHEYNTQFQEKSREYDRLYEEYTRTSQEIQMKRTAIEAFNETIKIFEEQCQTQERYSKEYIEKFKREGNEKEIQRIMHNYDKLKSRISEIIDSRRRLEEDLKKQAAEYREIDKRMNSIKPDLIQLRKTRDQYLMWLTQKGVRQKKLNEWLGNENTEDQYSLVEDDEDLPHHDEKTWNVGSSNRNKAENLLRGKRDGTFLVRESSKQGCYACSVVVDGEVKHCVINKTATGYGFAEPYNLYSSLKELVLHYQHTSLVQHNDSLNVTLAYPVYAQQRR
Test: PI3Kα enzyme assay (ADP-Glo)
Type: biochemical
Settings: read-out: PI3Kα enzyme inhibitory activity
pIC50: −log10 of the molar value.

{"compound": "CC(C)(O)c1cnnc(Nc2ccc3ncc(-c4cnn(CC5CCOCC5)c4)cc3n2)c1", "pIC50": "> 6.00"}
{"compound": "CC(C)c1cnnc(Nc2ccc3ncc(C4=CCN(C(=O)OC(C)(C)C)C4)cc3n2)c1", "pIC50": "5.00 to 6.00"}
{"compound": "CC(C)c1cnnc(Nc2ccc3ncc(C(N)=O)cc3n2)c1", "pIC50": "5.00 to 6.00"}
{"compound": "CC(C)c1cnnc(Nc2ccc3ncc(N4CCCN(C)CC4)cc3n2)c1", "pIC50": "5.00 to 6.00"}
{"compound": "COCCOC(CN1CCOCC1)Cn1cc(-c2cnc3ccc(Nc4cc(C(C)C)cnn4)nc3c2)cn1 (centres unmarked)", "pIC50": "> 6.00"}

Query string: Report pIC50, nothing else, for this compound: `CC(C)c1cnnc(Nc2ccc3ncc(-c4cn(C)nc4-c4ccc(OCCN5CCCCC5)cc4)cc3n2)c1`
Result string: > 6.00

Query string: Report pIC50, nothing else, for this compound: `COCCCn1cc(-c2cnc3ccc(Nc4cc(C(C)C)cnn4)nc3c2)cn1`
Result string: > 6.00

Query string: Report pIC50, nothing else, for this compound: `Cn1cc(-c2cnc3ccc(Nc4cc(C5CCOCC5)cnn4)nc3c2)cn1`
Result string: > 6.00
